# Tested target: T1, cyno TREM-1 on cells (cynomolgus monkey, UniProt A0A2K5VHG8 21-233)
# T1 sequence: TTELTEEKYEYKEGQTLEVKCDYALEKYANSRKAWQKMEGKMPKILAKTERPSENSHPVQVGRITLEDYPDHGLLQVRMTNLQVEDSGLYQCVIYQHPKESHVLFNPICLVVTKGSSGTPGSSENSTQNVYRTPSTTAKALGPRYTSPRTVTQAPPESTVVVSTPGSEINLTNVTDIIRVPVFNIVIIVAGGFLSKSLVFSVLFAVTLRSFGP
# Procedure details: cell-based or functional assay
Reported endpoint: Ab IC50-Cyno PBMC (Trial 1), TNFα release after cyno PGLYRP1/PGN (nM)
All answers are understood in nM, so give the number only.

>  <Binder>
50A12 (antibody, V domains shown) VH: EVQLVESGGGLVQPGGSLRLSCAASGFTFSSYWMSWVRQAPGKGLEWVANIKQDGSEEYYVDSVKGRFTISRDNAKNSLFLQMNSLRAEDTAVYYCARDYGDSFDYWGQGTLVTVSS VL: DIQMTQSPSSVSASVGDRVTITCRASQGIRKWLAWYQQKPGRAPKLLIYAASRLQSGVPSRFSGSGSGTDFTLTISSLRPEDFATYYCLQAHGFPWTFGQGTKVEIKR

>  <Unit>
nM

>  <Number>
2

$$$$

Determine from records and report Ab IC50-Cyno PBMC (Trial 1), TNFα release after cyno PGLYRP1/PGN for 49A2 (antibody, V domains shown) VH: EVQLVESGGGLVQPGGSLRLSCAASGFTFSSNWMSWVRQAPGKGLDWMASMKQDGSEIYYVDSVKGRFTISRDNAKNSLHLQMNSLRAEDTAVYYCVRGGWRFESWGQGALVTVSS VL: EIVMTQSPATLSVSPGERATLSCRASQSVSSNLAWYQQKSGQAPRLLIYGASIRATGIPARVSGSGSGTEFTFTISSLQSEDFAVYYCQQYKNWPLTLGGGTKVEIKR
0.732
